Reference source for all entries: ChEMBL document CHEMBL2163333

- target_system: Cytochrome P450 11B1, mitochondrial (Homo sapiens)
- Sequence (P15538 whole entry): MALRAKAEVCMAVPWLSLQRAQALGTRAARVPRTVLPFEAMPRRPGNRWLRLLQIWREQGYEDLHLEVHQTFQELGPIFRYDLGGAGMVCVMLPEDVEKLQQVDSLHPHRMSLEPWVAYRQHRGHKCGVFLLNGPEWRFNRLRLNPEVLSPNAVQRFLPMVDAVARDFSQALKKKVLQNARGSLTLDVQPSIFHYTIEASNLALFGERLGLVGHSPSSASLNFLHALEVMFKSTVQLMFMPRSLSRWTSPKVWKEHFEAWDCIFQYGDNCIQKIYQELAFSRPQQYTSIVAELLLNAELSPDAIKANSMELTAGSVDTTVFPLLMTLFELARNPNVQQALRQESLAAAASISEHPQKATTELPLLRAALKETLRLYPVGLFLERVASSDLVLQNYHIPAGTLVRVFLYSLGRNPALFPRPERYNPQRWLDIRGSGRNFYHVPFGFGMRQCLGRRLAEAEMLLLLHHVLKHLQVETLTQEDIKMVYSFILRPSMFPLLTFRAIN
- test_summary: Inhibition of human CYP11B1 expressed in hamster V79 MZh cells using deoxycorticosterone substrate
Reported IC50 values for a set of molecules
Your answer should be a plain number; it is taken to be in nM.

{"molecule": "N#Cc1ccc(C(c2cc3c4c(c2)CCN4C(=O)CC3)n2ccnc2)cc1 (stereo not given)", "IC50 / nM": 70}

// returns IC50 for O=C1CCc2cc(C(c3cccc(F)c3)n3ccnc3)cc3c2N1CC3 (stereo not given) with Cytochrome P450 11B1, mitochondrial (Homo sapiens); value = 29

// returns IC50 for O=C1CCc2cc(C(c3ccc(F)cc3)n3ccnc3)cc3c2N1CC3 (stereo not given) with Cytochrome P450 11B1, mitochondrial (Homo sapiens); value = 27

// returns IC50 for O=C1CCc2cc(C(c3ccco3)n3ccnc3)cc3c2N1CC3 (stereo not given) with Cytochrome P450 11B1, mitochondrial (Homo sapiens); value = 20

// returns IC50 for O=C1CCc2cc(C(C3CC3)n3ccnc3)cc3c2N1CC3 (racemic) with Cytochrome P450 11B1, mitochondrial (Homo sapiens); value = 2.2
